tested on: HCMV (human cytomegalovirus, strain AD 169); assay: HCMV antiviral plaque reduction assay in WI-38 cell culture; assay type: cell-based; conditions: Human betaherpesvirus 5; HCMV strain AD 169; WI-38 monolayers; at least 50% plaque reduction vs virus controls; 5-7 days at 37° C.; read-out: ID50 HCMV
measured.metric: IC50

Task: Given the entry Nc1ccn([C@@H]2CO[C@H](CO)[C@@H](O)C2)c(=O)n1 , report its measured IC50.
Result: 2 µM

Task: Given the entry O=c1[nH]c(=O)n([C@@H]2CO[C@H](CO)[C@@H](O)C2)cc1/C=C/Br , report its measured IC50.
Result: > 288 µM

Task: Given the entry Nc1ncnc2c1ncn2[C@@H]1CO[C@H](CO)[C@@H](O)C1 , report its measured IC50.
Result: 4 to 38 µM

Task: Given the entry Nc1nc2c(ncn2[C@@H]2CO[C@H](CO)[C@@H](O)C2)c(=O)[nH]1 , report its measured IC50.
Result: 18 to 36 µM

Task: Given the entry O=c1[nH]c(=O)n([C@@H]2CO[C@H](CO)[C@@H](O)C2)cc1I , report its measured IC50.
Result: > 272 µM

Task: Given the entry Cc1cn([C@@H]2CO[C@H](CO)[C@@H](O)C2)c(=O)[nH]c1=O , report its measured IC50.
Result: ≥ 390 µM
